system: Mycobacterium tuberculosis; experiment: Cornell M. t heat shock assay; format: functional, organism-based; set-up: dose or concentration left out as unconfirmed; also: in the data most compounds retested in dose-response had high values
The campaign covered roughly 69,000 compounds. About 950 (1.4%) showed an effect of 50% or more. The entries come from a sample that favours strong results as a whole.
MEASUREMENT_TYPE: Percent Effect (%)
Number in %, nothing else.

The examples below pair each entry with its known result.
MOLECULE	Percent Effect / %
CC(C)OCc1nn(C)c2c1CN(Cc1cccs1)CC2.O=CO	3.631
FC1(F)CCN(Cc2cccnc2)CC12CCN(c1ccccc1)C2.O=C(O)C(F)(F)F.O=C(O)C(F)(F)F.O=C(O)C(F)(F)F (stereo not given)	107.1
Cn1ccnc1CN1CCC2(CC1)COCCN(S(C)(=O)=O)C2.O=C(O)C(F)(F)F	17.11
O=C(CN1C(=O)CCNC1=O)N1CCC(c2ccc(F)cc2)C1 (stereo not given)	18.83
Cc1ccccc1N1CCN(c2ccncn2)C(C)C1 (stereo not given)	56.56

For the molecule CNc1cncc(C2CCCN2Cc2ccn(C)n2)n1 (stereo not given) , what Percent Effect is on record?
-19.6

Given the molecule `CCCN1CCC(c2nc3ccc(-c4ccccc4)cn3n2)CC1.O=C(O)C(F)(F)F` , what is its reported Percent Effect?
-8.011

Looking for the measured Percent Effect of c1ccc(CCN2CCCC2c2cncc(Nc3nncs3)n2)cc1 (stereo not given) , can you help?
99.24

Percent Effect for `CCOCCCn1c(NC(=O)c2ccc(C)nc2)nc2ccccc21` ?
25.39

For the molecule shown here, `Cc1ccc(N2CC[C@@H]3[C@@H]2CCN3C(=O)Cc2cccs2)nn1.O=C(O)C(F)(F)F` , give the reported Percent Effect.
1.861

Requested field: Percent Effect. Item: CNc1cc(C2CN(Cc3csc(C)n3)CCO2)nc(C)n1 (stereo not given)
-32.62

Any idea what its Percent Effect is? The molecule is CCn1ncc2c1C(COCC1CC1)CN(c1ccc(C)nn1)C2.O=C(O)C(F)(F)F.O=C(O)C(F)(F)F (stereo not given)
28.05

# query: Percent Effect of entry O=C1CCNC(=O)N1CC(=O)N1CCC1c1ccc(F)cc1 (stereo not given)
51.34

For O=C(O)C(F)(F)F.O=c1ccc2c([nH]1)CCC(NCc1ccc(F)cc1)C2 (stereo not given) , what is its reported Percent Effect?
-5.527

I would be grateful if you could share the reported Percent Effect for `CCOCCCn1c(NC(=O)c2ccnc(C)n2)nc2ccccc21` .
94.99

Would you kindly share the measured Percent Effect for FC1(F)CCN(Cc2cccnc2)CC12CCN(c1ccccn1)C2.O=C(O)C(F)(F)F.O=C(O)C(F)(F)F.O=C(O)C(F)(F)F (stereo not given) ?
8.031

What does the record list as Percent Effect for O=C(CN1C(=O)CCNC1=O)N1CCOC(c2ccc(F)cc2)C1 (stereo not given) ?
12.93

Entry under review: O=C(O)C(F)(F)F.c1ccc(N2CCOC3(CCCN(c4ncccn4)C3)C2)nc1 (stereo not given) . Reported Percent Effect?
36.25

If you can, please state the reported Percent Effect value of `CCOCCCn1c(NC(=O)c2cc(C)on2)nc2ccccc21` .
59.74

Need Percent Effect of O=C(O)C(F)(F)F.O=C(O)C(F)(F)F.O=C(O)CN1CCC(F)(F)C2(CCN(c3ccccn3)C2)C1 (stereo not given) , thanks.
-7.749

Which Percent Effect is listed for O=C(O)C(F)(F)F.O=C(O)C(F)(F)F.O=C(c1c[nH]cn1)N1CCC(F)(F)C2(CCN(c3ccccn3)C2)C1 (stereo not given) ?
6.804

Item `COc1ccc(CN(C)C(=O)c2nnc(CN(C)C)o2)cc1` has what recorded Percent Effect?
-15.5

Item under review: `Cc1ccc(CN2CCc3onc(C(=O)Nc4cccnc4)c3C2)o1.O=C(O)C(F)(F)F.O=C(O)C(F)(F)F` . Reported Percent Effect?
26.18

Fill in the blank: the reported Percent Effect of `Cc1oncc1C(=O)N[C@@H]1CN(Cc2ccco2)C[C@@H]2CCCO[C@@H]21.O=C(O)C(F)(F)F` is ____.
4.265

Could you share which Percent Effect value was measured for `CO[C@@H]1CCN(Cc2c(C)noc2C)[C@@H]2CN(Cc3cccnc3)C[C@@H]21.O=C(O)C(F)(F)F.O=C(O)C(F)(F)F.O=C(O)C(F)(F)F` ?
14.07

I am curious: what Percent Effect value has been reported for FC1(F)CCN(Cc2ccncc2)CC12CCN(c1cccnc1)C2.O=C(O)C(F)(F)F.O=C(O)C(F)(F)F.O=C(O)C(F)(F)F (stereo not given) ?
-5.593

###

test system: Mycobacterium tuberculosis; assay: Cornell M. t heat shock assay; type: functional, organism-based; design: dose or concentration left out as unconfirmed; also: in the data most compounds retested in dose-response had high values
In all, about 69,000 compounds went through this assay and about 950 (1.4%) showed an effect of 50% or more. What follows is part of a selection rich in strong results, with near analogues and random picks from the rest.
Reported Percent Effect values for the following compounds.
The response must be a number in % with no trailing unit.

Worked cases, answers included:
COMPOUND	Percent Effect (%)
FC1(F)CCN(Cc2ccncc2)CC12CCN(Cc1ccccn1)C2.O=C(O)C(F)(F)F.O=C(O)C(F)(F)F.O=C(O)C(F)(F)F (centres undefined)	-15.56
CN(CC1CCCO1)c1nc(-c2cccnc2)nc2c1CCNCC2 (centres undefined)	-30.46
CCc1cc(N2CCC(n3cc(C(=O)NCC(C)C)nn3)CC2)ncn1	7.459
CCc1nnc(Nc2cccc(C3CCN(S(=O)(=O)N(C)C)CC3)n2)s1	-4.928

Please look up its Percent Effect: Cc1cc(C(=O)N2CCc3nc(C4CCCCN4)ncc3C2)cs1.Cl (centres undefined)
-19.38

Quick one: Percent Effect of `CN(C)C(=O)CN1C(=O)CCC12CCN(Cc1ccsc1)CC2.O=C(O)C(F)(F)F` ?
-0.1041

Quick check: Percent Effect of CCC1CN(C(=O)c2csc3nc(-c4ccc(Cl)cc4)cn23)CCN1 (centres undefined) ?
59.48

For the compound COc1ccccc1C(N)CC(C)C (centres undefined) , what Percent Effect is on record?
-0.8675

Could you share which Percent Effect value was measured for `O=C(O)C(F)(F)F.O=C1CO[C@@H]2CN(CC3CCOCC3)C[C@H]2N1CC1CC1` ?
-5.405

What value of Percent Effect has been reported for the following compound? CCC1CN(C(=O)c2ccc(=O)[nH]c2)CCC(=O)N1Cc1ccccc1 (centres undefined)
106.1

###

Below, each entry is listed with its recorded Percent Effect.
tested on: Mycobacterium tuberculosis; test: Cornell M. t heat shock assay; assay type: functional, organism-based; set-up: dose or concentration left out as unconfirmed; also: in the data most compounds retested in dose-response had high values
In all, about 69,000 compounds went through this assay and about 950 (1.4%) showed an effect of 50% or more. What follows is part of a selection rich in strong results, with near analogues and random picks from the rest.
Numbers only; they are read as %.

Study these solved cases before continuing.
COMPOUND	UNIT_NAME	MEASURED_RESULT
Cc1cc(C2CCNCC2)nc(-c2ccsc2)n1.Cl	%	-13.2
COc1ncc(C2(O)CCN(Cc3ccc(F)c(F)c3)CC2)c(OC)n1.Cl	%	2.429

As a next step, examine the molecule that follows.
// returns reported Percent Effect for input `CN1CCN(C(=O)Cn2nc(C(F)(F)F)c(Br)c2C2CC2)CC1`
82.35

###

system: Mycobacterium tuberculosis; assay: Cornell M. t heat shock assay; type: functional, organism-based; design: dose or concentration left out as unconfirmed; also: in the data most compounds retested in dose-response had high values
Among all 69,000 compounds or so, about 950 (1.4%) showed an effect of 50% or more. Many of the other results were omitted from the sample, so strong results are more common in it than they were.
Percent Effect reference
Kindly answer with a numeric value in %, unit omitted.

Record request: Percent Effect value, item `COc1ccc(CNC(=O)CN2CCc3ccccc32)cc1`
-48.79

Which Percent Effect value belongs to CNC(=O)C1Cn2ccnc2C2(CCN(Cc3nccs3)CC2)O1.O=C(O)C(F)(F)F.O=C(O)C(F)(F)F (centres undefined) ?
-22.49

Consider the compound `O=C(O)C(F)(F)F.O=C(O)C(F)(F)F.O=C(O)C(F)(F)F.O=C1CO[C@@H]2CN(Cc3ccncc3)C[C@H]2N1Cc1ccncc1` and give its measured Percent Effect.
-33.4

###

In this section we review reported Percent Effect values for a set of molecules.
tested on: Mycobacterium tuberculosis; assay: Cornell M. t heat shock assay; format: functional, organism-based; parameters: dose or concentration left out as unconfirmed; also: in the data most compounds retested in dose-response had high values
About 950 (1.4%) of roughly 69,000 compounds showed an effect of 50% or more. Only a selection was taken, and strong results are over-represented in it overall.
Report the value in % with no unit label.

COMPOUND	MEASURED_ON	UNIT_NAME	Percent Effect
O=C(NCC(=O)N1CC2(CCCC2)c2c(F)cccc21)C1CC1	Mycobacterium tuberculosis	%	55.94
CC(=O)c1cc(CN2C[C@H]3CC[C@@H]2CN(S(C)(=O)=O)C3)cs1	Mycobacterium tuberculosis	%	74.41

With those in mind, consider the next molecule.
I would be grateful if you could share the reported Percent Effect for `Cc1cccc(CN2C[C@@H]3COC[C@]3(CNC(=O)C3CC3)C2)c1.O=C(O)C(F)(F)F` .
2.9

Data origin, for the record: ChEMBL document CHEMBL3988442
